Values from patent US20260226084A1

Biological target: C-Raf kinase (SEQ ID NO: 2) (Homo sapiens, UniProt P04049, Y340D/Y341D)
Construct: C-Raf residues 306-end; Y340D, Y341D with; GST (N); purchased Sigma
Sequence (P04049 307-648 Y340D/Y341D): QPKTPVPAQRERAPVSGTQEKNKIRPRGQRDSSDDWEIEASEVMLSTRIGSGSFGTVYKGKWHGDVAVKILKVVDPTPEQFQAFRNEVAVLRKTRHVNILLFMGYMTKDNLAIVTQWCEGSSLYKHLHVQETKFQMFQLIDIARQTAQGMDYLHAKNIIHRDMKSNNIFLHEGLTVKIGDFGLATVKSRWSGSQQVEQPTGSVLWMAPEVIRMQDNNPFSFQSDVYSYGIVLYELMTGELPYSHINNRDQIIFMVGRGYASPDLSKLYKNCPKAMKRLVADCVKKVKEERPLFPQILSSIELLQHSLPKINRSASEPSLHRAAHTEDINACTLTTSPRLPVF
Assay: Biochemical Assay for C-Raf (coupled pyruvate kinase/lactate dehydrogenase assay)
Conditions: Table 4, representative compounds from PCT/US2022/081242; read-out: CRAF IC50
In this section we review reported IC50 values for a set of compounds.

INSERT INTO results (compound, measure, recorded_result) VALUES
  ('Cc1ccc(NC(=O)c2ccnc(C(C)C)c2)cc1-c1ccnc(-c2ccnc(NC(=O)C3CC3)c2)c1 [reference compound]', 'IC50', '< 100 nM');

Fill blank: measured IC50 of the compound Cc1ccc(NC(=O)c2ccnc(C3CC3)c2)cc1-c1ccnc(-c2ccnc(NC(=O)C3CC3)c2)c1 [reference compound] is ____. < 100 nM

Quick one: Cc1ccc(NC(=O)c2ccnc(C(C)(C)F)c2)cc1-c1ccnc(-c2ccnc(NC(=O)C3CC3)c2)c1 [reference compound] < 100 nM
